System: bone resorption (parietal bone)
Assay: Bone resorption-inhibitory activity (45Ca release from newborn mouse parietal bone, hPTH (1-34) stimulated, method of Raisz)
Format: cell-based, ICR mouse
Details: read-out: bone resorption-inhibitory action, % against control
// reported inhibition at 20 µM per item
Express it in %; write the number only.

Example entries and their recorded answers appear below.
> print(dat)
                                   compound        endpoint.name  result.number
1  Cc1nnc2n1-c1sc(CCc3ccc(CC(C)C)cc3)cc1C(c1cccc(Cl)c1)=NC2 [compound 5]  inhibition at 20 µM           26.7
2  CCc1cc2c(s1)-n1c(noc1=O)CN=C2c1ccccc1Cl [compound 66]  inhibition at 20 µM           56.3
3  Cc1nnc2n1-c1sc(CCc3ccc(CC(C)C)cc3)cc1C(c1ccc(O)cc1)=NC2 [compound 31]  inhibition at 20 µM           26.4
4  Cc1nnc2n1-c1ccc(Cl)cc1C(c1ccccc1Cl)=NC2 [compound 68]  inhibition at 20 µM           57.5
5  Clc1ccc2c(c1)C(c1ccccc1Cl)=NCc1nccn1-2 [compound 70]  inhibition at 20 µM           50.3
6  Cc1nnc2n1-c1ccccc1C(c1ccccc1)=NC2COC(=O)Cc1ccccc1 (stereo not drawn) [compound 511]  inhibition at 20 µM           37.7
7  Cc1nnc2n1-c1ccccc1C(c1ccc(Cl)cc1)=NC2NC(=O)OCc1ccccc1 (stereo not drawn) [compound 504]  inhibition at 20 µM           24.6
8  Cc1nnc2n1-c1ccc(Cl)cc1C(c1ccccc1)=NC2 [compound 69]  inhibition at 20 µM           21.9

Task: State the recorded inhibition at 20 µM for this entry: Cc1nnc2n1-c1ccccc1C(c1ccc(Cl)cc1)=NC2NC(=O)Nc1cccnc1 (stereo not drawn) [compound 523]
Result: 26.7

Sourced from patent US5593988A
